The measurements presented in this section are drawn from patent US6413607B1.

# MEASUREMENT_NOTES: Light characteristics: visible absorption spectrum in methanol and as thin layer over glass
# Assay type: physicochemical
# EXPERIMENTAL_CONDITIONS: dissolved in methanol
EXPERIMENTAL_READOUT: Maximum absorption (nm) CH3OH

>  <COMPOUND>
CCN1C(=CC=CC2=[N+](CC)c3ccc(S(=O)(=O)N(CC)CC)cc3C2(C)C)C(C)(C)c2c1ccc1ccccc21.[O-][Cl+3]([O-])([O-])[O-] [Chemical Formula 27]

>  <Maximum absorption (nm) CH3OH>
571

$$$$
>  <COMPOUND>
CCCCN1C(=CC=CC2=[N+](C)c3ccc([N+](=O)[O-])cc3C2(C)C)C(C)(C)c2c1ccc1ccccc21.CCN(CC)c1ccc2c(c1)[O][Co-]1([O]c3ccc([N+](=O)[O-])cc3N=N2)[O]c2ccc([N+](=O)[O-])cc2N=Nc2ccc(N(CC)CC)cc2[O]1 [Chemical Formula 3]

>  <Maximum absorption (nm) CH3OH>
540

$$$$
>  <COMPOUND>
CCCCN1C(=CC=CC2=[N+](C)c3ccc(S(=O)(=O)N(CC)CC)cc3C2(C)C)C(C)(C)c2c1ccc1ccccc21.CCN(CC)c1ccc2c(c1)[O][Co-]1([O]c3ccc([N+](=O)[O-])cc3N=N2)[O]c2ccc([N+](=O)[O-])cc2N=Nc2ccc(N(CC)CC)cc2[O]1 [Chemical Formula 24]

>  <Maximum absorption (nm) CH3OH>
538

$$$$
>  <COMPOUND>
CCCCN1C(=CC=CC2=[N+](CCC)c3ccc([N+](=O)[O-])cc3C2(C)C)C(C)(C)c2c1ccc1ccccc21.[O-][Cl+3]([O-])([O-])[O-] [Chemical Formula 7]

>  <Maximum absorption (nm) CH3OH>
577

$$$$
>  <COMPOUND>
CCCN1C(=CC=CC2=[N+](CCC)c3ccc([N+](=O)[O-])cc3C2(C)C)C(C)(C)c2c1ccc1ccccc21.[O-][Cl+3]([O-])([O-])[O-] [Chemical Formula 6]

>  <Maximum absorption (nm) CH3OH>
578

$$$$
>  <COMPOUND>
CCCCN1C(=CC=CC2=[N+](CCCC)c3ccc([N+](=O)[O-])cc3C2(C)C)C(C)(C)c2c1ccc1ccccc21.[O-][Cl+3]([O-])([O-])[O-] [Chemical Formula 8]

>  <Maximum absorption (nm) CH3OH>
577

$$$$
>  <COMPOUND>
CCCCN1/C(=C/C=C/C2=[N+](CCCC)c3ccc(C)cc3C2(C)C)C(C)(C)c2c1ccc1ccccc21 [Chemical Formula 34, reference compound]

>  <Maximum absorption (nm) CH3OH>
574

$$$$
>  <COMPOUND>
CN1C(=CC=CC2=[N+](C)c3ccc([N+](=O)[O-])cc3C2(C)C)C(C)(C)c2c1ccc1ccccc21 [Chemical Formula 1]

>  <Maximum absorption (nm) CH3OH>
573

$$$$
>  <COMPOUND>
CCN1C(=CC=CC2=[N+](CC)c3ccc([N+](=O)[O-])cc3C2(C)C)C(C)(C)c2c1ccc1ccccc21.[O-][Cl+3]([O-])([O-])[O-] [Chemical Formula 4]

>  <Maximum absorption (nm) CH3OH>
576

$$$$
>  <COMPOUND>
CCCCN1/C(=C/C=C/C2=[N+](CCCC)c3ccccc3C2(C)C)C(C)(C)c2c1ccc1ccccc21 [Chemical Formula 33, reference compound]

>  <Maximum absorption (nm) CH3OH>
568

$$$$
>  <COMPOUND>
CCCCN1C(=CC=CC2=[N+](C)c3ccc(S(=O)(=O)N(CC)CC)cc3C2(C)C)C(C)(C)c2c1ccc1ccccc21.F[P-](F)(F)(F)(F)F [Chemical Formula 23]

>  <Maximum absorption (nm) CH3OH>
591

$$$$
>  <COMPOUND>
CCN1C(=CC=CC2=[N+](CC)c3ccc([N+](=O)[O-])cc3C2(C)C)C(C)(C)c2ccc3ccccc3c21.[O-][Cl+3]([O-])([O-])[O-] [Chemical Formula 15]

>  <Maximum absorption (nm) CH3OH>
562

$$$$
>  <COMPOUND>
CCCCN1C(=CC=CC2=[N+](C)c3ccc(S(=O)(=O)N(CC)CC)cc3C2(C)C)C(C)(C)c2c1ccc1ccccc21.O=[N+]([O-])c1ccc2c(c1)N=Nc1c(ccc3ccccc13)[O][Ni-]1([O]2)[O]c2ccc([N+](=O)[O-])cc2N=Nc2c(ccc3ccccc23)[O]1 [Chemical Formula 26]

>  <Maximum absorption (nm) CH3OH>
570

$$$$
